Listing of recorded IC50 by entry.
- Measurement Target: various mutants of kinase EGFR (BaF3 cell lines stably transfected with kinase) (Homo sapiens, UniProt P00533, C797S/L858R/T790M)
- Construct: expressed in transfected cells; host or cells: BaF3
- Sequence (P00533 25-1210 T790M/C797S/L858R): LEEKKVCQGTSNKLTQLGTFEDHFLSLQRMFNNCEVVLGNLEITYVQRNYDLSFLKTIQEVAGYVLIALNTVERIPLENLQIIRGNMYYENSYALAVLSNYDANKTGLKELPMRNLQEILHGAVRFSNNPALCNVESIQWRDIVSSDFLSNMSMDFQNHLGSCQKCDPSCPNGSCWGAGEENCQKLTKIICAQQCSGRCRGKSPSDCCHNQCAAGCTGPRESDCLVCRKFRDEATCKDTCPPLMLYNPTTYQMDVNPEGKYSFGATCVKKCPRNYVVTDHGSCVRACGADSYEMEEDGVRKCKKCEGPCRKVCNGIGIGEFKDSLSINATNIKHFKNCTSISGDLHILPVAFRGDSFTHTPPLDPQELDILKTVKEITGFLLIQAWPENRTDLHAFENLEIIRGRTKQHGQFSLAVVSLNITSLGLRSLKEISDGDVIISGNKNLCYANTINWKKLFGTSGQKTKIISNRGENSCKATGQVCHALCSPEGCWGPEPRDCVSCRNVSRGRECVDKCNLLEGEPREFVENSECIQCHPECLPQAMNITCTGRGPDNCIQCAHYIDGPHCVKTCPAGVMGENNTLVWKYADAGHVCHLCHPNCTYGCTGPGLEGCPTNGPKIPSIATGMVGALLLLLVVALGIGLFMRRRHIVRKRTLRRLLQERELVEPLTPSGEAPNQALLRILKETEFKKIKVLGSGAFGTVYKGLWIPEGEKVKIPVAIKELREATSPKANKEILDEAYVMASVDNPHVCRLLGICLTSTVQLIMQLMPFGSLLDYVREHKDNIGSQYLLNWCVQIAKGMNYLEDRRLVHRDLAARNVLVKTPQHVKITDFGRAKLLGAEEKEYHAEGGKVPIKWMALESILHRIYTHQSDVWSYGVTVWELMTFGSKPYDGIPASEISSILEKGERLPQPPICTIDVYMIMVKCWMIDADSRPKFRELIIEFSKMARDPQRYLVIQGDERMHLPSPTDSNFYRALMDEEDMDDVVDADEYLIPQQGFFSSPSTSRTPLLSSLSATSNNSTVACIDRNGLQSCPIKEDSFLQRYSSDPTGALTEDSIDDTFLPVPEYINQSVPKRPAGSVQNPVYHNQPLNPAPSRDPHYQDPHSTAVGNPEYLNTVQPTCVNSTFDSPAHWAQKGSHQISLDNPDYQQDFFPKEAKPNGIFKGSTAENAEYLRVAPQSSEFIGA
- Assay Method Text: Growth inhibitory activity of compounds on BaF3 cell lines stably transfected with kinase (MTS, 48 h)
- Assay type: cell-based
- Condition Label: BaF3 cells stably transfected with EGFR L858R/T790M/C797S, read-out: IC50, growth inhibition, L858R/T790M/C797S

Sample records with IC50:
Structure Notation: C=Cc1cc(Nc2ncc(C3CC3)c(Nc3ccc4nccnc4c3N(C)S(C)(=O)=O)n2)c(OC(F)(F)F)cc1N1CCC(N2CCN(C)CC2)CC1
IC50: ≤ 50 nM
--
Structure Notation: COc1cc(N2CCC(N3CCN(C)CC3)CC2)c(C)cc1Nc1ncc(Br)c(Nc2ccc3nccnc3c2N(C)S(=O)(=O)C(F)(F)F)n1
IC50: 50 to 500 nM

Turning now to a further record.
Tell me IC50 reported for CCc1cc(Nc2ncc(C(F)(F)F)c(Nc3ccc4nccnc4c3N(C)S(C)(=O)=O)n2)c(OC)cc1N1CCN(C)CC1
≤ 50 nM

###

- Measurement Target: various mutants of kinase EGFR (BaF3 cell lines stably transfected with kinase) (Homo sapiens, UniProt P00533)
- Construct: other: BaF3 cells stably transfected with EGFR Δ19Del; MTS, 48 h; other: BaF3 cell line stably transfected with EGFR Δ19Del
- Sequence (P00533 with tags, fused parts or gaps DEL746-750): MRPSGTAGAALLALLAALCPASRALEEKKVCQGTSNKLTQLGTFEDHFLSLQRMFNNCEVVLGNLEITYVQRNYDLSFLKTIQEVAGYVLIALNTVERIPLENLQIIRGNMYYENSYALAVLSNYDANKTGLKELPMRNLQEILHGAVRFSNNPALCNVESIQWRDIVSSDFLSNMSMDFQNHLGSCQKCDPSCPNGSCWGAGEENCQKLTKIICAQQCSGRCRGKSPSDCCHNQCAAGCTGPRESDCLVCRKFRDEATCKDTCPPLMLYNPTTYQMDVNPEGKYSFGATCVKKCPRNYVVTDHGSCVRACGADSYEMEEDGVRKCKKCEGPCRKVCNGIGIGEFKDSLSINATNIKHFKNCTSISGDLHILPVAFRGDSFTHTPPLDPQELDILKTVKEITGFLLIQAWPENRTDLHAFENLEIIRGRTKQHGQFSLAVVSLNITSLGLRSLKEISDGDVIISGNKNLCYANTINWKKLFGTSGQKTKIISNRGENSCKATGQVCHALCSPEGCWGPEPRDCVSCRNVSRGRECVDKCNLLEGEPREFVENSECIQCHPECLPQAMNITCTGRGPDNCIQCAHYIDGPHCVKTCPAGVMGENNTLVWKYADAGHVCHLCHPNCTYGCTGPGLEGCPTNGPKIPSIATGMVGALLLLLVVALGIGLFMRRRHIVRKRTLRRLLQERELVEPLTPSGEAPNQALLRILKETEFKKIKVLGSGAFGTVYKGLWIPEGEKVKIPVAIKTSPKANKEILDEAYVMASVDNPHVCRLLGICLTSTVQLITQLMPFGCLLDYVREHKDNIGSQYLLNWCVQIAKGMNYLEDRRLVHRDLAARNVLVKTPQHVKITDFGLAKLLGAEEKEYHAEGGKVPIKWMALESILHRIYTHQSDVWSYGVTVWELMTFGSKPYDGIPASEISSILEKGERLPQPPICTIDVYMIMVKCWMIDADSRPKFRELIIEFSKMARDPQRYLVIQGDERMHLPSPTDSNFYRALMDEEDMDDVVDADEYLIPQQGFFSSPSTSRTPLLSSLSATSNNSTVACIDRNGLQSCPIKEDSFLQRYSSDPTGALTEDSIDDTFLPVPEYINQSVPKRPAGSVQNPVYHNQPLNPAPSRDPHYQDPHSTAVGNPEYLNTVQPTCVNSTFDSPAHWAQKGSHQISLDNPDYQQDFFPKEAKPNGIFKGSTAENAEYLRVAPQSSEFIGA
- Assay Method Text: Growth inhibitory activity of compounds on BaF3 cell lines stably transfected with kinase (MTS, 48 h)
- Assay type: cell-based
- Condition Label: BaF3 cells stably transfected with EGFR Δ19Del, read-out: IC50, growth inhibition, Δ19Del
Assay Endpoint: IC50

Compound: CCc1cc(Nc2ncc(Br)c(Nc3ccc4nccnc4c3N(CC)S(C)(=O)=O)n2)c(OC)nc1N1CCC(N2CCN(C)CC2)CC1
IC50: 50 to 500 nM

Compound: CCc1cc(Nc2ncc(Br)c(Nc3ccc4nccnc4c3N(C)S(=O)(=O)C(F)(F)F)n2)c(OC)cc1N1CCN(C)CC1
IC50: 500 to 2500 nM

Supply IC50 value. Item: CCc1cc(Nc2ncc(Cl)c(Nc3ccc4nccnc4c3N(CC)S(C)(=O)=O)n2)c(OC(F)(F)F)cc1N1CCC(N2CCN(C)CC2)CC1
50 to 500 nM

Specify IC50 for CN1CCN(S(=O)(=O)c2ccc(Nc3ncc(Br)c(Nc4ccc5nccnc5c4N(C)S(C)(=O)=O)n3)cc2)CC1 and stop.
50 to 500 nM

Quote IC50 reported for CCc1cc(Nc2ncc(C(F)(F)F)c(Nc3ccc4nccnc4c3N(C)S(C)(=O)=O)n2)c(OC(F)(F)F)cc1N1CCC(N2CCN(C)CC2)CC1 please.
50 to 500 nM

Write down IC50 measured for item CCN(c1c(Nc2nc(Nc3cc(C)c(N4CCC(N(C)C)C4)cc3OC)ncc2Br)ccc2nccnc12)S(C)(=O)=O (stereo not drawn)
50 to 500 nM

Please look at this compound and report its IC50: CCc1cc(Nc2ncc(C(F)(F)F)c(Nc3ccc4nccnc4c3N(C)S(C)(=O)=O)n2)c(OC)cc1N1CCC(N(C)C)C1 (stereo not drawn)
≤ 50 nM

Answer with the recorded IC50 of COc1cc(N2CCC(N3CCN(C)CC3)CC2)c(Cc2ccccc2)cc1Nc1ncc(Cl)c(Nc2ccc3nccnc3c2N(C)S(C)(=O)=O)n1 only.
500 to 2500 nM

Provide only the value of recorded IC50 for CCc1cc(Nc2ncc(Cl)c(Nc3ccc4nccnc4c3N(C)S(=O)(=O)CC)n2)c(OC)nc1N1CCC(N2CCN(C)CC2)CC1
50 to 500 nM

Tell me measured IC50 for COc1cc(N2CCC(N3CCN(C)CC3)CC2)c(C2CC2)cc1Nc1ncc(Br)c(Nc2ccc3nccnc3c2N(C)S(C)(=O)=O)n1 please.
50 to 500 nM

Give me measured IC50, please, for this compound: CCc1cc(Nc2ncc(OC)c(Nc3ccc4nccnc4c3N(C)S(C)(=O)=O)n2)c(OC(F)(F)F)cc1N1CCC(N2CCN(C)CC2)CC1
≤ 50 nM

Complete the entry with IC50 for COc1cc(N2CCC(N3CCN(C)CC3)CC2)c(C)cc1Nc1ncc(Cl)c(Nc2ccc3nccnc3c2N(C)S(=O)(=O)C(F)(F)F)n1
500 to 2500 nM
